- study target: MASP-2 CCP2-SP (Homo sapiens (Human), UniProt O00187)
- Sequence (O00187 445-686): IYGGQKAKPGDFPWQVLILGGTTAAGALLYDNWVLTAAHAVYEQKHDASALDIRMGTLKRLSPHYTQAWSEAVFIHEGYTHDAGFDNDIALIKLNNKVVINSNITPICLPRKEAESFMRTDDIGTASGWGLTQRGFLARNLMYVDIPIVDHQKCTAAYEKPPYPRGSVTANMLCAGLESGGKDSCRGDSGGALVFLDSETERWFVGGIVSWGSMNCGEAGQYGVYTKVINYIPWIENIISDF
- Sequence (O00187 364-432 partner): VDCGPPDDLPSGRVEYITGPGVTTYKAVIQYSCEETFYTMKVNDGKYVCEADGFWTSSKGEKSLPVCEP
- assay text: MASP-2 co-crystallization, X-ray crystallography and structure analysis (H-bonds, van der Waals contacts)
- Set-up: unit not given beside the values
- test settings: Table A5-1 pharmacophore: distance between elements, S2/S1 region
Below, each entry is listed with its recorded d(H4,O2).
The response must contain the number and no unit.

Some solved cases for reference:
>  <molecule>
C[C@H](NC(=O)[C@H](N)C1Cc2ccccc2C1)C(=O)NCc1ccc2nc(N)[nH]c2c1 [compound 1059]

>  <d(H4,O2)>
4.48

$$$$
>  <molecule>
C[C@H](NC(=O)[C@H](N)C1Cc2ccccc2C1)C(=O)NCc1ccc2c(N)nccc2c1.Cl.Cl [1088_B]

>  <d(H4,O2)>
6.06

$$$$
>  <molecule>
C[C@H](NC(=O)[C@H]1C[C@@H](c2ccccc2)CCN1)C(=O)NCc1cc(Cl)ccc1O.Cl [1078_1]

>  <d(H4,O2)>
2.61

$$$$

MASP-2 CCP2-SP (Homo sapiens (Human), UniProt O00187) data for Cc1cc(Cl)cc(CNC(=O)[C@H](C)NC(=O)[C@H]2C[C@H](Cc3ccccc3)CN2)c1O [compound 1307] ; its d(H4,O2): 3.80

MASP-2 CCP2-SP (Homo sapiens (Human), UniProt O00187) data for C[C@H](NC(=O)[C@H](N)CCc1ccccc1)C(=O)NCc1ccc(C(=N)N)cc1 [compound 1024] ; its d(H4,O2): 3.27

MASP-2 CCP2-SP (Homo sapiens (Human), UniProt O00187) data for C[C@H](NC(=O)[C@H]1C[C@@H](c2ccccc2)CCN1)C(=O)NCc1cc(Cl)ccc1O.Cl [1078_5] ; its d(H4,O2): 2.46

MASP-2 CCP2-SP (Homo sapiens (Human), UniProt O00187) data for C[C@H](NC(=O)[C@H]1C[C@H](Cc2ccccc2)CN1)C(=O)NCc1ccc(C(=N)N)cc1.Cl.Cl [1306_1] ; its d(H4,O2): 5.09

MASP-2 CCP2-SP (Homo sapiens (Human), UniProt O00187) data for C[C@H](NC(=O)[C@H]1C[C@@H](c2ccccc2)CN1)C(=O)NCc1ccc2c(N)nccc2c1.Cl.Cl [1089_B] ; its d(H4,O2): 3.69

The reported measurements were obtained from patent US12195427B2.
